tested on: A498 kidney cancer cell line; experiment: MTS cell viability assay, A498 kidney cancer cells; type: cell-based; conditions: Homo sapiens, A498, read-out: IC50 to reduce A498 cell number
recordedMetric: pIC50
Just so you know, pIC50 here is -log10 of the concentration in molar units; reply with that number alone.

Q: Hi! What's the reported pIC50 for O=c1[nH]cc(F)c(=O)[nH]1 [5-FU, fluorouracil, reference compound] on A498 kidney cancer cell line?
Ans: 4.74

###

test system: fetal hepatocytes HL-7002; assay: MTS cell viability assay, HL-7002 (kidney cancer study; controls carboplatin, 5-FU); conditions: Homo sapiens, Hepatocyte, read-out: IC50 in HL-7002 cells
recordedMetric: IC50 (µM)
Your answer is read as µM, so omit the unit and give the number.

Q: Reported IC50, molecule O=c1[nH]cc(F)c(=O)[nH]1 [5-FU, fluorouracil, reference compound] : ____
Ans: 45

###

tested on: fetal hepatocytes HL-7002; assay: MTS cell viability assay, HL-7002 (prostate cancer study; controls docetaxel, cisplatin); settings: read-out: IC50 to reduce HL-7002 cell number; HL-7002 cells, study with docetaxel and cisplatin (FIG. 3)
recordedMetric: IC50

Q: Reported IC50, molecule N.N.[Cl][Pt][Cl] [cisplatin, reference compound] : ____
Ans: 2.01 µM
